- target_of_assay: GPR39 (Homo sapiens, UniProt O43194)
- Sequence (O43194 whole entry): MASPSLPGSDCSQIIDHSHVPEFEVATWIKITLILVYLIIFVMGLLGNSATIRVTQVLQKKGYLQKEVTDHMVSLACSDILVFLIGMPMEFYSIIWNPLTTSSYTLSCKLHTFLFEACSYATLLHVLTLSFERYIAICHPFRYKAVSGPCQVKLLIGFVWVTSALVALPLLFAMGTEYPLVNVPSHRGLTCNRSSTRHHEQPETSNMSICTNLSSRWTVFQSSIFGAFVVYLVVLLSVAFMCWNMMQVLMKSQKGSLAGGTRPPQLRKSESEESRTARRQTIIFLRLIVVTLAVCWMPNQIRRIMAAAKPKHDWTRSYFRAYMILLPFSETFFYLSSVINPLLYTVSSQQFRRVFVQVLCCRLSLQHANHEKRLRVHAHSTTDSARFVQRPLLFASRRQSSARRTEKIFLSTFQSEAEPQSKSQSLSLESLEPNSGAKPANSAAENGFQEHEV
Square brackets hold non-standard residues; d marks the D form. Peptide text beside a SMILES is read from it. * marks the point of attachment. His(Trt) = N[C@@H](Cc1cn(C(c2ccccc2)(c2ccccc2)c2ccccc2)cn1)C(=O)O; His(τ-CHPh2) = N[C@@H](Cc1cn(C(c2ccccc2)c2ccccc2)cn1)C(=O)O; Tyr(3-NH2) = Nc1cc(C[C@H](N)C(=O)O)ccc1O; dPhe(4-Me) = Cc1ccc(C[C@@H](N)C(=O)O)cc1; Octanoyl = CCCCCCCC(=O)*
As shown below, each of these compounds has a reported ECmax (-fold induction over basal) value.
measured_property: ECmax (-fold induction over basal)

>>> experimental_value("CCCCCCCC(=O)NCCCC[C@H](NC(=O)[C@@H](N)Cc1cn(C(c2ccccc2)c2ccccc2)cn1)C(=O)N[C@@H](Cc1ccccc1)C(=O)N[C@@H](Cc1ccc(O)cc1)C(=O)O [HKFY-33] (H-[His(τ-CHPh2)]K(Octanoyl)FY-OH)")
"20 ± 0.57 -fold induction over basal"
>>> experimental_value("CCCCCCCC(=O)NCCCC[C@H](NC(=O)[C@@H](N)Cc1cn(Cc2ccc(-c3ccccc3-c3nnn[nH]3)cc2)cn1)C(=O)N[C@H](Cc1ccc(C)cc1)C(=O)N[C@@H](Cc1ccc(O)cc1)C(=O)O")
"11.6 ± 2.14 -fold induction over basal"
>>> experimental_value("CCCCCCCC(=O)NCCCC[C@H](NC(=O)[C@@H](N)Cc1cn(C(c2ccccc2)c2ccccc2)cn1)C(=O)N[C@H](Cc1ccc(C)cc1)C(=O)N[C@@H](Cc1ccc(O)c(N)c1)C(=O)O [HKFY-70] (H-[His(τ-CHPh2)]K(Octanoyl)[dPhe(4-Me)][Tyr(3-NH2)]-OH)")
"10.1 ± 1.6 -fold induction over basal"
>>> experimental_value("CCCCCCCC(=O)NCCCC[C@H](N)C(=O)N[C@@H](Cc1cn(C(c2ccccc2)(c2ccccc2)c2ccccc2)cn1)C(=O)N[C@@H](Cc1ccccc1)C(=O)N[C@@H](Cc1ccc(O)cc1)C(=O)O [HKFY-55] (H-K(Octanoyl)[His(Trt)]FY-OH)")
"16.8 ± 2.5 -fold induction over basal"

Ref: patent US20230212222A1
